These measurements were taken from patent US11046691B1.

Exercise: for every item that follows, state its recorded IC50.
Biological target: hMAT2A (Homo sapiens (Human), UniProt P31153)
Sequence (P31153 whole entry): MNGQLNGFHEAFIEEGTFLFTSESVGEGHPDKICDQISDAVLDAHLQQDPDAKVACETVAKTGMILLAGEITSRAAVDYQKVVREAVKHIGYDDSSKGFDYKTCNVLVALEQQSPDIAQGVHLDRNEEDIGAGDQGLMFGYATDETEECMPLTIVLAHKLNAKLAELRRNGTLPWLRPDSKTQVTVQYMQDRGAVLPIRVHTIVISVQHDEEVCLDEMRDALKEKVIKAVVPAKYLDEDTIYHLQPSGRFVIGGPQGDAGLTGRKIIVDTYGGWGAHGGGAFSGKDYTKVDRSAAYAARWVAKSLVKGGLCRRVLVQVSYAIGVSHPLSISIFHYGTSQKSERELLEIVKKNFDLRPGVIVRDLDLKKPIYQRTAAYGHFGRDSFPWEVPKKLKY
Test: Phosphate Sensor Fluorescence Assay (MAT2A enzyme inhibition)
Assay type: biochemical
Details: L-methionine 500 uM, ATP 500 uM, class symbols

If you can, please state the reported IC50 value of COc1nc(=O)n(-c2ccccc2)c2cc(C(F)(F)F)ccc12 [Example 144] .
200 to 500 nM

Name the recorded IC50 for CNc1nc(=O)n(-c2ccncc2)c2nc(C(F)(F)F)ccc12 [Example 313] .
500 to 1000 nM

Param item = O=c1nc(N2CCSC2)c2ccc(C(F)(F)F)nc2n1-c1ccccc1 [Example 346] ; retrieve measured IC50.
< 200 nM

Param item = O=c1nc(N2CC(O)C2)c2ccc(C(F)(F)F)cc2n1-c1ccccc1 [Example 164] ; retrieve measured IC50.
< 200 nM

Return reported IC50; argument: CNC(=O)c1cccc(-n2c(=O)nc(NC)c3ccc(Cl)cc32)c1 [Example 175]
< 200 nM

Form field: reported IC50 of CNc1nc(=O)n(-c2ncccn2)c2cc(C3CC3)ccc12 [Example 309]
1000 to 10000 nM

Report IC50 for CNC(=O)CN(C)c1nc(=O)n(-c2ccccc2)c2cc(Cl)ccc12 [Example 221] please.
1000 to 10000 nM

Any idea what its IC50 is? The compound is CC1(C)[C@H](O)C[C@@H]1Nc1nc(=O)n(-c2ccccc2Cl)c2nc(C(F)(F)F)ccc12 (relative stereo) [Example 276]
1000 to 10000 nM

# get_value(readout='IC50', item= CNC(=O)C1CN(c2nc(=O)n(-c3ccccc3)c3cc(Cl)ccc23)C1 [Example 204] )
< 200 nM
